Listed next: entries and their corresponding viability, T/C.
system: 624824-186-R-J2-PDC multicell spheroids, viability; assay: Anticancer human tumor 624824-186-R-J2-PDC patient-derived colon adenocarcinoma cell line growth inhibition [PI3K]; conditions: second compound 0.0316 µM; first compound 1 µM; stronger effect = lower value

# count of solved cases: 2
Compound	Assay result
Cn1nccc1Nc1nccc(-c2ccn(C(CO)c3ccc(Cl)c(F)c3)c(=O)c2)n1 (stereo not drawn) + CC(Nc1ccc2c(c1)OCCn1cc(N3C(=O)OCC3C(F)F)nc1-2)C(N)=O	91.6%
C#Cc1c(F)ccc2cc(O)cc(-c3ncc4c(N5CC6CCC(C5)N6)nc(OCC56CCCN5CC(F)C6)nc4c3F)c12 (stereo not drawn) + CC(Nc1ncnc2nc[nH]c12)c1cc2cccc(Cl)c2c(=O)n1-c1ccccc1	73.1%

[ask] Could you share which viability, T/C value was measured for Cn1nccc1Nc1nccc(-c2ccn(C(CO)c3ccc(Cl)c(F)c3)c(=O)c2)n1 (stereo not drawn) + Cc1nc(NC(=O)N2CCCC2C(N)=O)sc1-c1ccnc(C(C)(C)C(F)(F)F)c1 ?
[reply] 92%

====

system: 624824-186-R-J2-PDC multicell spheroids, viability; assay: Anticancer human tumor 624824-186-R-J2-PDC cell line growth inhibition [PI3K]; settings: second compound 1 µM; first compound 0.000316 µM; stronger effect = lower value;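 further: spheroids exposed to agents for 7 days before viability read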;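 on viability, T/C: 100% = DMSO vehicle treated spheroids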
Measured quantity: viability, T/C (%)
// return numeric value only (unit: %, not printed)

[ask] Any idea what viability, T/C came out for CC(=O)c1c(C)c2cnc(Nc3ccc(N4CCNCC4)cn3)nc2n(C2CCCC2)c1=O + COc1c(OCCCN2CCOCC2)ccc2c3n(c(=NC(=O)c4cnc(N)nc4)nc12)CCN3 on 624824-186-R-J2-PDC multicell spheroids, viability?
[reply] 59

[ask] Now give it for Cn1ncnc1[C@H]1c2n[nH]c(=O)c3cc(F)cc(c23)N[C@@H]1c1ccc(F)cc1 + CC(Nc1ncnc2nc[nH]c12)c1cc2cccc(Cl)c2c(=O)n1-c1ccccc1 too.
[reply] 72.6

[ask] Now give it for CC(C)n1nc(-c2ccc3oc(N)nc3c2)c2c(N)ncnc21 + COc1c(OCCCN2CCOCC2)ccc2c3n(c(=NC(=O)c4cnc(N)nc4)nc12)CCN3 too.
[reply] 64.6

====

tested on: 624824-186-R-J2-PDC multicell spheroids, viability; assay: Anticancer human tumor 624824-186-R-J2-PDC cell line growth inhibition [PI3K]; conditions: curve of first compound; second compound 0.316 µM;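 further: spheroids exposed to agents for 7 days before viability read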
pIC50: −log10 of the molar value.
Listed next: entries and their corresponding pIC50.

Compound	Measured quantity	Assay result
CC(Cn1ccc(-c2ccc(C#N)c(Cl)c2)n1)NC(=O)c1cc(C(C)O)[nH]n1 (configuration not stated) + Cc1nc(NC(=O)N2CCCC2C(N)=O)sc1-c1ccnc(C(C)(C)C(F)(F)F)c1	pIC50	< 5.00
C[C@@H](NC(=O)c1ncnc(N)c1Cl)c1ncc(C(=O)Nc2cc(C(F)(F)F)c(Cl)cn2)s1 + COc1c(OCCCN2CCOCC2)ccc2c3n(c(=NC(=O)c4cnc(N)nc4)nc12)CCN3	pIC50	6.30

[ask] Could you share which pIC50 value was measured for C=CC(=O)N1CCN(c2nc(=O)n(-c3c(C)ccnc3C(C)C)c3nc(-c4c(O)cccc4F)c(F)cc23)C(C)C1 (configuration not stated) + CC(Nc1ccc2c(c1)OCCn1cc(N3C(=O)OCC3C(F)F)nc1-2)C(N)=O ?
[reply] < 5.00

[ask] Now give it for C[C@@H](NC(=O)c1ncnc(N)c1Cl)c1ncc(C(=O)Nc2cc(C(F)(F)F)c(Cl)cn2)s1 + Cc1nc(NC(=O)N2CCCC2C(N)=O)sc1-c1ccnc(C(C)(C)C(F)(F)F)c1 too.
[reply] < 5.00

[ask] Now give it for CC(C)NCC(C(=O)N1CCN(c2ncnc3c2C(C)CC3O)CC1)c1ccc(Cl)cc1 (configuration not stated) + CC(Nc1ccc2c(c1)OCCn1cc(N3C(=O)OCC3C(F)F)nc1-2)C(N)=O too.
[reply] < 5.00

[ask] Now give it for CCN1CCN(Cc2ccc(Nc3ncc(F)c(-c4cc(F)c5nc(C)n(C(C)C)c5c4)n3)nc2)CC1 + COc1c(OCCCN2CCOCC2)ccc2c3n(c(=NC(=O)c4cnc(N)nc4)nc12)CCN3 too.
[reply] < 6.00

[ask] Now give it for Cn1ncc(Cl)c1-c1cc(C(=O)NC(CN)Cc2cccc(F)c2)sc1Cl (configuration not stated) + COc1c(OCCCN2CCOCC2)ccc2c3n(c(=NC(=O)c4cnc(N)nc4)nc12)CCN3 too.
[reply] 5.27

====

Tested on: 624824-186-R-J2-PDC multicell spheroids, viability
Test: Anticancer human tumor 624824-186-R-J2-PDC cell line growth inhibition [PI3K];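 further: spheroids exposed to agents for 7 days before viability read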;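 on viability, T/C: 100% = DMSO vehicle treated spheroids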
Details: second compound 0.1 µM; first compound 3.16 µM; stronger effect = lower value
Source text: Combinatorial screen of targeted agents with the PI3K inhibitors inavolisib, alpelisib, duvelisib, and copanlisib in multi-cell type tumor spheroids A high-throughput screen of multi-cell type tumor spheroids was designed to identify active combinations of targeted small molecules and PI3K pathway inhibitors. […] Compounds. […] If the clinical Cmax for an agent had not been determined, the highest concentration tested was 10 microM. […]
Measured quantity: viability, T/C (%)
// return numeric value only (unit: %, not printed)

Compound	Scale unit	viability, T/C
CNC(=O)c1ccc(N2C(=S)N(c3ccc(C#N)c(C(F)(F)F)c3)C(=O)C2(C)C)cc1F + CC(Nc1ccc2c(c1)OCCn1cc(N3C(=O)OCC3C(F)F)nc1-2)C(N)=O	%	78
Cn1nccc1Nc1nccc(-c2ccn(C(CO)c3ccc(Cl)c(F)c3)c(=O)c2)n1 (stereo not given) + COc1c(OCCCN2CCOCC2)ccc2c3n(c(=NC(=O)c4cnc(N)nc4)nc12)CCN3	%	26.6
CCCS(=O)(=O)Nc1ccc(F)c(C(=O)c2c[nH]c3ncc(-c4ccc(Cl)cc4)cc23)c1F + CC(Nc1ncnc2nc[nH]c12)c1cc2cccc(Cl)c2c(=O)n1-c1ccccc1	%	128
C[C@@H](NC(=O)c1ncnc(N)c1Cl)c1ncc(C(=O)Nc2cc(C(F)(F)F)c(Cl)cn2)s1 + COc1c(OCCCN2CCOCC2)ccc2c3n(c(=NC(=O)c4cnc(N)nc4)nc12)CCN3	%	38.7

Okay, next one:
[ask] Could you share which viability, T/C value was measured for C[C@@H](NC(=O)c1ncnc(N)c1Cl)c1ncc(C(=O)Nc2cc(C(F)(F)F)c(Cl)cn2)s1 + Cc1nc(NC(=O)N2CCCC2C(N)=O)sc1-c1ccnc(C(C)(C)C(F)(F)F)c1 ?
[reply] 84.2

====

tested on: 624824-186-R-J2-PDC multicell spheroids, viability; assay: Anticancer human tumor 624824-186-R-J2-PDC cell line growth inhibition [PI3K]; settings: second compound 0.1 µM; first compound 0.316 µM; stronger effect = lower value;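 further: spheroids exposed to agents for 7 days before viability read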;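 on viability, T/C: 100% = DMSO vehicle treated spheroids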
Measured quantity: viability, T/C (%)
// return numeric value only (unit: %, not printed)

Compound	Assay result
CC1(C)CCC(CN2CCN(c3ccc(C(=O)NS(=O)(=O)c4ccc(NCC5CCOCC5)c([N+](=O)[O-])c4)c(Oc4cnc5[nH]ccc5c4)c3)CC2)=C(c2ccc(Cl)cc2)C1 + Cc1nc(NC(=O)N2CCCC2C(N)=O)sc1-c1ccnc(C(C)(C)C(F)(F)F)c1	88.2

[ask] Any idea what viability, T/C came out for Cn1ncc(Cl)c1-c1cc(C(=O)NC(CN)Cc2cccc(F)c2)sc1Cl (stereo not given) + Cc1nc(NC(=O)N2CCCC2C(N)=O)sc1-c1ccnc(C(C)(C)C(F)(F)F)c1 on 624824-186-R-J2-PDC multicell spheroids, viability?
[reply] 70.5

[ask] Now give it for CC1(C)CCC(Nc2ncc(C(F)(F)F)c(-c3c[nH]c4c(P(C)(C)=O)c(C#N)ccc34)n2)CN1 (stereo not given) + CC(Nc1ncnc2nc[nH]c12)c1cc2cccc(Cl)c2c(=O)n1-c1ccccc1 too.
[reply] 96.3

[ask] Now give it for C[C@@H](NC(=O)c1ncnc(N)c1Cl)c1ncc(C(=O)Nc2cc(C(F)(F)F)c(Cl)cn2)s1 + Cc1nc(NC(=O)N2CCCC2C(N)=O)sc1-c1ccnc(C(C)(C)C(F)(F)F)c1 too.
[reply] 85.7

[ask] Now give it for Cn1ncc(Cl)c1-c1cc(C(=O)NC(CN)Cc2cccc(F)c2)sc1Cl (stereo not given) + CC(Nc1ncnc2nc[nH]c12)c1cc2cccc(Cl)c2c(=O)n1-c1ccccc1 too.
[reply] 80.7

[ask] Now give it for C=CC(=O)N1CCN(c2nc(=O)n(-c3c(C)ccnc3C(C)C)c3nc(-c4c(O)cccc4F)c(F)cc23)C(C)C1 (stereo not given) + COc1c(OCCCN2CCOCC2)ccc2c3n(c(=NC(=O)c4cnc(N)nc4)nc12)CCN3 too.
[reply] 80.1

====

Tested on: 624824-186-R-J2-PDC multicell spheroids, viability
Assay: Anticancer human tumor 624824-186-R-J2-PDC cell line growth inhibition [PI3K];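 further: spheroids exposed to agents for 7 days before viability read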
Details: curve of first compound; second compound 0.316 µM
Excerpt: Combinatorial screen of targeted agents with the PI3K inhibitors inavolisib, alpelisib, duvelisib, and copanlisib in multi-cell type tumor spheroids A high-throughput screen of multi-cell type tumor spheroids was designed to identify active combinations of targeted small molecules and PI3K pathway inhibitors. […] Compounds. […] If the clinical Cmax for an agent had not been determined, the highest concentration tested was 10 microM. […]
Measured quantity: IC50

Compound	IC50
CC(=O)c1c(C)c2cnc(Nc3ccc(N4CCNCC4)cn3)nc2n(C2CCCC2)c1=O + Cc1nc(NC(=O)N2CCCC2C(N)=O)sc1-c1ccnc(C(C)(C)C(F)(F)F)c1	> 0.1 µM
CC1(C)CCC(CN2CCN(c3ccc(C(=O)NS(=O)(=O)c4ccc(NCC5CCOCC5)c([N+](=O)[O-])c4)c(Oc4cnc5[nH]ccc5c4)c3)CC2)=C(c2ccc(Cl)cc2)C1 + COc1c(OCCCN2CCOCC2)ccc2c3n(c(=NC(=O)c4cnc(N)nc4)nc12)CCN3	4.68 µM
CC(C)n1nc(-c2ccc3oc(N)nc3c2)c2c(N)ncnc21 + Cc1nc(NC(=O)N2CCCC2C(N)=O)sc1-c1ccnc(C(C)(C)C(F)(F)F)c1	> 0.1 µM

Okay, next one:
[ask] Could you share which IC50 value was measured for Cn1nccc1Nc1nccc(-c2ccn(C(CO)c3ccc(Cl)c(F)c3)c(=O)c2)n1 (stereo not given) + Cc1nc(NC(=O)N2CCCC2C(N)=O)sc1-c1ccnc(C(C)(C)C(F)(F)F)c1 ?
[reply] > 10 µM
